Reported pIC50 values are given for each entry in this list.
molecular target: DRB1*0301 (Homo sapiens, UniProt P01903+P01911, A100K/A102G/A103R/A169T/F55Y/I96L/K41T/L162R/M171V/P40S/Q125H/Q178H/Q39Y/R42S/S66N/T106N/T262R/W38E/Y61H); test: biochemical
Sequence (P01903 26-254, other chains not shown): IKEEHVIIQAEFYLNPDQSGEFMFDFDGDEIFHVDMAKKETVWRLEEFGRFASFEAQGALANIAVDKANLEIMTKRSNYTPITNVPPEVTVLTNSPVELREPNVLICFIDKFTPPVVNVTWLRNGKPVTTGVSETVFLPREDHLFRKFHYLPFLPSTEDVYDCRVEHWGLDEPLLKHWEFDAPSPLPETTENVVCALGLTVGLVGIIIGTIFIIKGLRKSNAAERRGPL
Bear in mind: pIC50 is minus log10 of a mol/L concentration; give just that figure.

Examples with answers:
COMPOUND: CC[C@H](C)[C@H](NC(=O)[C@H](C)NC(=O)[C@H](CC(N)=O)NC(=O)[C@H](CO)NC(=O)[C@H](C)NC(=O)[C@H](CC(C)C)NC(=O)[C@H](CCCNC(=N)N)NC(=O)[C@H](CC(C)C)NC(=O)[C@H](CC(=O)O)NC(=O)[C@H](CCCNC(=N)N)NC(=O)[C@H](CCCNC(=N)N)NC(=O)[C@H](Cc1c[nH]cn1)NC(=O)[C@H](Cc1ccccc1)NC(=O)[C@H](Cc1ccc(O)cc1)NC(=O)[C@@H](N)CCSC)C(=O)O [NS5 765-779]
VAL: 5.89
--
COMPOUND: CSCC[C@H](NC(=O)[C@H](CC(C)C)NC(=O)[C@H](CCCNC(=N)N)NC(=O)[C@H](Cc1c[nH]cn1)NC(=O)[C@H](CC(=O)O)NC(=O)[C@H](CS)NC(=O)[C@H](CC(C)C)NC(=O)[C@H](CCC(N)=O)NC(=O)[C@@H](NC(=O)[C@H](Cc1ccc(O)cc1)NC(=O)[C@@H](NC(=O)[C@@H](N)CCC(=O)O)C(C)C)[C@@H](C)O)C(=O)N[C@@H](CO)C(=O)N[C@@H](C)C(=O)N[C@@H](C)C(=O)O [NS1 173-187]
VAL: 6.10

[in] Looking for the measured pIC50 of CC[C@H](C)[C@H](NC(=O)[C@H](CC(C)C)NC(=O)[C@H](CCCCN)NC(=O)CN)C(=O)N[C@@H](Cc1c[nH]cn1)C(=O)N[C@@H](CCC(=O)O)C(=O)N[C@@H](Cc1c[nH]c2ccccc12)C(=O)N[C@@H](CS)C(=O)N[C@@H](CS)C(=O)N[C@@H](CCCNC(=N)N)C(=O)N[C@@H](CO)C(=O)N[C@@H](CS)C(=O)N[C@H](C(=O)N[C@@H](CC(C)C)C(=O)N1CCC[C@H]1C(=O)O)[C@@H](C)O [NS1 305-319] , can you help?
[out] 6.08
